System: anti-desmoglein-3 scFv antibody binding to human DSG3
experiment_summary: inhibitors of anti-DSG3 scFv binding to DSG3, pilot screen, biochemical, validation compound set, bead-based, flow cytometry (AID 588368);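 further: signal is the median channel fluorescence of bead-bound GFP antibody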
recorded_conditions: Protein G beads, DSG3-Fc, scFv-GFP binding, at 10 µM, hits give low values
Calls of active or inactive are those of the source.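 How the source made its calls: active means binding below the plate cutoff, the plate median minus 3 SD, with a reading above zero; inconclusive means below the plate cutoff but reading exactly zero; inactive means the rest.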
quantity_measured: binding (% of control)

[
  {
    "compound": "C[N+]1(C)CCOC(O)(c2ccc(-c3ccc(C4(O)C[N+](C)(C)CCO4)cc3)cc2)C1 (stereo not given)",
    "result": "101% (inactive)"
  },
  {
    "compound": "O=C1C(=O)c2ccccc2-c2ccccc21",
    "result": "98.9% (inactive)"
  },
  {
    "compound": "CCOC(=O)c1cc2c(cn1)[nH]c1ccccc12",
    "result": "98.5% (inactive)"
  },
  {
    "compound": "CC12CN3CC(C)(CN(C1)C3c1cccs1)C2O (stereo not given)",
    "result": "98% (inactive)"
  },
  {
    "compound": "COc1ccc(NC2=NCC(C)S2)cc1 (stereo not given)",
    "result": "100% (inactive)"
  },
  {
    "compound": "CC12CN3CC(C)(CN(C1)C31CCOCC1)C2=O",
    "result": "100% (inactive)"
  },
  {
    "compound": "CC(C)(C)C(O)C(Oc1ccc(Cl)cc1)n1cncn1 (stereo not given)",
    "result": "100% (inactive)"
  },
  {
    "compound": "NNC(=O)c1ccc(Cl)cc1",
    "result": "98.7% (inactive)"
  },
  {
    "compound": "c1ccc2c(c1)OCC(C1=NCCN1)O2 (stereo not given)",
    "result": "99.6% (inactive)"
  },
  {
    "compound": "C[C@H]1CCCC(=O)CCCCCc2cc(O)cc(O)c2C(=O)O1",
    "result": "106% (inactive)"
  },
  {
    "compound": "[N-]=[N+]=CC(=O)OC[C@H](N)C(=O)O",
    "result": "92.8% (inactive)"
  },
  {
    "compound": "CN1C(=O)N(C)C(=O)C2(Cc3ccccc3N3CCOCC32)C1=O (stereo not given)",
    "result": "102% (inactive)"
  },
  {
    "compound": "C[C@]12CCC(=O)C=C1CCC1C2CC[C@@]2(C)C1CC[C@@]2(O)CC#N (stereo not given in full)",
    "result": "97.9% (inactive)"
  },
  {
    "compound": "CCOC(=O)c1cncn1C(C)c1ccccc1 (stereo not given)",
    "result": "101% (inactive)"
  },
  {
    "compound": "C=CC1CN2CCC1CC2[C@@H](OC(=O)c1ccc(OC)cc1)c1ccnc2ccccc12 (stereo not given in full)",
    "result": "109% (inactive)"
  },
  {
    "compound": "O=C1NCCN2CCCC12 (stereo not given)",
    "result": "101% (inactive)"
  },
  {
    "compound": "c1ccc2c(c1)Nc1ccccc1S2",
    "result": "100% (inactive)"
  },
  {
    "compound": "COc1cc(/C=C2\\C(=O)NC(=O)N(c3ccccc3)C2=O)c([N+](=O)[O-])cc1OC",
    "result": "105% (inactive)"
  },
  {
    "compound": "CC(C)CCC1(CN2CCCC2=O)C(=O)NC(=O)NC1=O",
    "result": "98.4% (inactive)"
  },
  {
    "compound": "COc1ccc(Cc2nccc3cc(OC)c(OC)cc23)cc1OC",
    "result": "108% (inactive)"
  },
  {
    "compound": "C[N+](C)(C)Cc1ccccc1",
    "result": "103% (inactive)"
  },
  {
    "compound": "CC1CCC[C@H](O)CCCCCc2cc(O)cc(O)c2C(=O)O1 (stereo not given in full)",
    "result": "106% (inactive)"
  },
  {
    "compound": "Clc1ccc(C2NCCc3[nH]cnc32)cc1 (stereo not given)",
    "result": "100% (inactive)"
  },
  {
    "compound": "Cc1ccc(-n2c(C)cc(/C=C3/C(=O)NC(=O)N(C)C3=O)c2C)cc1",
    "result": "108% (inactive)"
  },
  {
    "compound": "CC(=O)OC1C2CCC1C(N1CCCC1)CC2 (stereo not given)",
    "result": "103% (inactive)"
  }
]

* * *

experiment_summary: yeast V-ATPase proton transport modulators, S. cerevisiae, pHLuorin, HTS validation (AID 504600);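 further: plate controls were DMSO for no effect and reference compound for full effect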
recorded_conditions: S. cerevisiae pHLuorin cytosolic pH, at 10 µM, hits give high values
Activity calls are given as the source filed them. Rule as the data show it: active = response above about 15%; inactive = the rest.
Each entry below lists one item and its recorded response value.

[
  {
    "compound": "C[C@@H]1O[C@@H](O[C@H]2C[C@@H](O)[C@]3(CO)[C@H]4[C@H](O)C[C@]5(C)[C@@H](C6=CC(=O)OC6)CC[C@]5(O)[C@@H]4CC[C@]3(O)C2)[C@H](O)[C@H](O)[C@H]1O",
    "response": "0.97% (inactive)"
  },
  {
    "compound": "Clc1ccc(COC(Cn2ccnc2)c2ccc(Cl)cc2Cl)cc1 (stereo not drawn)",
    "response": "2.69% (inactive)"
  },
  {
    "compound": "CC(C)[C@H]1C(=O)N2CCC[C@H]2[C@]2(O)O[C@](NC(=O)[C@@H]3C=C4c5cccc6[nH]cc(c56)C[C@H]4N(C)C3)(C(C)C)C(=O)N12",
    "response": "-7.73% (inactive)"
  },
  {
    "compound": "O=C1CSC2N1CCNC21CCCCC1 (stereo not drawn)",
    "response": "2.26% (inactive)"
  },
  {
    "compound": "c1cnc2c(c1)ccc1ncccc12",
    "response": "21.4% (active)"
  },
  {
    "compound": "C[C@H]1CC[C@@]2(C)[C@@H](CC[C@@H]3[C@@H]2CC[C@]2(C)[C@@H](O)CC[C@@H]32)C1",
    "response": "1.08% (inactive)"
  },
  {
    "compound": "C=CC1CN2CCC1CC2[C@@H](OC(=O)c1ccc(OC)cc1)c1ccnc2ccccc12 (stereo partly drawn)",
    "response": "-0.74% (inactive)"
  },
  {
    "compound": "O=C1CC[C@@]2(O)[C@H]3Cc4ccc(O)c5c4[C@@]2(CCN3CC2CC2)[C@H]1O5",
    "response": "1.19% (inactive)"
  }
]

* * *

inhibition: recorded values
assayed_target: Lethal factor (Bacillus anthracis) (UniProt P15917)
Sequence (P15917 whole entry, looked up): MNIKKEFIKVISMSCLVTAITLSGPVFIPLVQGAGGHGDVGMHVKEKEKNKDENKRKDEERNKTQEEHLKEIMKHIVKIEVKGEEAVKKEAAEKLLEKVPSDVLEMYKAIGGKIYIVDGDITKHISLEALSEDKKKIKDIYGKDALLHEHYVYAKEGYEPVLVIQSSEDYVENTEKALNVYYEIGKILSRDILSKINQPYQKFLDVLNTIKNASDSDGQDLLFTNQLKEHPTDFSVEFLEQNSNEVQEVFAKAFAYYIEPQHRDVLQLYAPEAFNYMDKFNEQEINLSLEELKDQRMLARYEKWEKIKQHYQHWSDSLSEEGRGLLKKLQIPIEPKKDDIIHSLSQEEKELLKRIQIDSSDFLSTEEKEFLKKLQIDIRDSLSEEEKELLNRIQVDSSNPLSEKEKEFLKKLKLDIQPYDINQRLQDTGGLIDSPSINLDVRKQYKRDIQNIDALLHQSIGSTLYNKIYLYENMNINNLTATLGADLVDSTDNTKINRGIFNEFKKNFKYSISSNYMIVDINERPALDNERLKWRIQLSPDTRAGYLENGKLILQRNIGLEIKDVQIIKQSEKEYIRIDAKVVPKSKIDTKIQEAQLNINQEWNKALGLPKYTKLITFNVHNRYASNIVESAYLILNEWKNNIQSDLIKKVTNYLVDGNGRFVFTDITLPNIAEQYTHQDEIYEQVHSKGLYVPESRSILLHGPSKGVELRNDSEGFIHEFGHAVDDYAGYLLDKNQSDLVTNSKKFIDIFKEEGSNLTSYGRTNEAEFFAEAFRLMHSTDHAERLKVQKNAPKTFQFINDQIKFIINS
experiment_summary: Lethal factor protease inhibitors, Bacillus anthracis, multiplex microsphere cleavage assay, validation set (AID 588461)
recorded_conditions: flow cytometry, at 10 µM, hits give high values
Calls of active or inactive are those of the source. How the calls were made is not given here.
quantity_measured: inhibition

[
  {
    "molecule": "Cn1c2c(c(=O)[nH]c1=O)C(c1ccc(O)cc1)C1=C(N2)c2ccccc2C1=O (stereo not given)",
    "result": "3.1% (inactive)"
  },
  {
    "molecule": "CN(Cc1ccccc1)CC(O)COc1ccc(CNCc2cccnc2)cc1 (stereo not given)",
    "result": "-5.3% (inactive)"
  },
  {
    "molecule": "O=C(Nc1cccc(C(=O)O)c1)/C(=C\\c1ccccc1)NC(=O)c1ccccc1",
    "result": "-0.8% (inactive)"
  },
  {
    "molecule": "Cc1ccc2nc(C)c3c(c2c1)OC(C(C)(Cl)Br)C3 (stereo not given)",
    "result": "3.2% (inactive)"
  },
  {
    "molecule": "CC(=O)OC[C@H]1O[C@@H](n2ncc(=O)[nH]c2=O)[C@H](OC(C)=O)[C@@H]1OC(C)=O",
    "result": "3.7% (inactive)"
  },
  {
    "molecule": "Cc1nc(N)nc2c1CCCC2",
    "result": "4.9% (inactive)"
  },
  {
    "molecule": "COc1c(C)cc(C(=O)C2CCCN(Cc3ccc(Oc4ncccn4)cc3)C2)cc1C (stereo not given)",
    "result": "-4.4% (inactive)"
  },
  {
    "molecule": "CCOC(=O)c1oc2cc(O)cc(C)c2c(=O)c1-c1cscn1",
    "result": "-2.6% (inactive)"
  },
  {
    "molecule": "COc1cccc(C2CC(=O)C3=C(C2)Nc2ccccc2N(C(=O)CCC(=O)O)C3c2ccc(F)cc2)c1 (stereo not given)",
    "result": "5.1% (inactive)"
  },
  {
    "molecule": "CC[n+]1ccc2cc(OC)c(OC)cc2c1Cc1ccc(OC)c(OC)c1",
    "result": "-0.5% (inactive)"
  }
]

* * *

Test system: Botulinum neurotoxin type F light chain protease (Clostridium botulinum)
experiment_summary: Botulinum neurotoxin type F light chain protease inhibition, multiplex microsphere flow cytometry, validation set (AID 588459)
recorded_conditions: multiplex microsphere protease substrate cleavage assay, at 10 µM, hits give high values

[
  {
    "given_smiles": "COc1ccccc1OCC(=O)O",
    "inhibition, %": 1
  },
  {
    "given_smiles": "COc1ccc(Cl)cc1C(=O)NCCc1ccc(S(=O)(=O)NC(=O)NC2CCCCC2)cc1",
    "inhibition, %": -1.1
  },
  {
    "given_smiles": "C[C@H](NC(=O)NCCc1ccccc1)C(=O)O",
    "inhibition, %": 0.5
  },
  {
    "given_smiles": "CC(=O)CCc1oc2ccccc2c1-c1ccccc1",
    "inhibition, %": -0.7
  },
  {
    "given_smiles": "COc1ccc(Cc2nccc3cc(OC)c(OC)cc23)cc1OC",
    "inhibition, %": 1.7
  },
  {
    "given_smiles": "CCN1CCN(C(=O)N[C@@H](C(=O)N[C@@H]2C(=O)N3[C@@H]2SC(C)(C)[C@@H]3C(=O)O)c2ccccc2)C(=O)C1=O",
    "inhibition, %": -1.5
  },
  {
    "given_smiles": "C[C@]12CCC(=O)C[C@@H]1CC[C@@H]1[C@@H]2CC[C@]2(C)C=CC[C@@H]12",
    "inhibition, %": 3.9
  },
  {
    "given_smiles": "CSc1cccc(NC(=O)/C=C/c2ccccc2)c1",
    "inhibition, %": -0.9
  },
  {
    "given_smiles": "CCCCC[C@H](O)/C=C/[C@@H]1[C@@H](C/C=C\\CCCC(=O)O)[C@H]2CO[C@@H]1C2",
    "inhibition, %": 0.5
  },
  {
    "given_smiles": "CN/C(=C/[N+](=O)[O-])NCCSCc1ccc(CN(C)C)o1",
    "inhibition, %": 0.1
  },
  {
    "given_smiles": "COc1ccc2oc(-c3ccco3)cc(=O)c2c1",
    "inhibition, %": 3
  }
]
